Hey, just so you know, these numbers are from ChEMBL document CHEMBL4130502.

target: UniProtKB P50637; experiment: Inhibition of TSPO in mouse HT22 cells assessed as reduction in amyloid beta (1 to 42) (unknown origin) induced mitochondrial permeability transition pore formation by measuring increase in green to red fluorescence ratio at 5 uM pretreated for 10 mins followed by amyloid beta (1 to 42) stimulation and measured at 1 hr interval for 3 hrs by JC-1 dye based fluorescence assay relative to control; format: cell-based; design: scale not given: the % may be the effect or the level left
Sequence (P50637 whole entry, looked up): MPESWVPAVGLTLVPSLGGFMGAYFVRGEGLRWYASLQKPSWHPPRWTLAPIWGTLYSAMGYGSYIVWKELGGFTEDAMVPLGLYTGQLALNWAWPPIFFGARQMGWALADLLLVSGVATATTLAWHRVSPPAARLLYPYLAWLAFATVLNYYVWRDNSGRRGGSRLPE
Label no if Activity falls below 60%; label yes in every other case.

Please indicate if the recorded Activity for CCc1nnc(SCC(=O)N2CCN(c3ccccc3)CC2)c2cc3sc(C)cc3n12 meets or exceeds 60%. yes

Please indicate if the recorded Activity for CCc1nnc(SCC(=O)Nc2ccc(OC)c(OC)c2)c2cc3sc(Cl)cc3n12 meets or exceeds 60%. yes

Please indicate if the recorded Activity for O=C(COc1ccc(Cl)cc1)ON=C(c1ccccc1)c1ccccc1 meets or exceeds 60%. no

Please indicate if the recorded Activity for CCc1nn(CC(=O)N2CCN(c3ccccc3)CC2)c(=O)c2cc3sccc3n12 meets or exceeds 60%. no

Please indicate if the recorded Activity for CCc1nnc(SCC(=O)N(C)c2ccccc2)c2cc3sccc3n12 meets or exceeds 60%. no

Please indicate if the recorded Activity for C=CCN1C(=O)CN=C(c2ccccc2)c2c1sc(C)c2C meets or exceeds 60%. yes

Please indicate if the recorded Activity for CCc1nn(CC(=O)Nc2ccc(OC)c(OC)c2)c(=O)c2cc3sccc3n12 meets or exceeds 60%. no

Please indicate if the recorded Activity for Cc1cc2c(cc3c(=O)n(CC(=O)N(C)c4ccccc4)nc(C)n32)s1 meets or exceeds 60%. no

Please indicate if the recorded Activity for CCN(Cc1ccccc1)C(=O)CSc1nnc(C)n2c1cc1sc(C)cc12 meets or exceeds 60%. yes
